Target: T1, Sla1-2, P32790
T1 sequence (P32790 60-140, looked up): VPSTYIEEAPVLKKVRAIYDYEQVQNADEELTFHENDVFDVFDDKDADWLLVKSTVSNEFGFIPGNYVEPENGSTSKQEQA
Assay: SPOT array
Settings: median of control spots 712
Assay endpoint: SPOT intensity

Previously resolved entries follow.
{"columns": ["Binder", "SPOT intensity"],
 "data": [
  ["GKLKHIPRRPYEIER", 0],
  ["KMSRSPPRPPSLKII", 8],
  ["ATKSASPTLPTRRSR", 8],
  ["QPQRTAPKPPISAPR", 0],
  ["RRGPAPPPPPRASRP", 0]
]}

a. IAPIPMPKPNPTHIS
b. SGVRLPAPPPPPRRG
Ask: Form field 'greater SPOT intensity' accepts a or b ; which applies? Answer format: the label of the selected item.
Reply: b
(b: 3, a: 1)
